Parameter pIC50: see the listing below.
# TARGET OR SYSTEM: rat mGlu2 (Rattus norvegicus)
# Construct: expressed in transfected cells
# TEST METHOD NOTES: mGlu2 Ca2+ flux assay
# Assay type: cell-based
# CONDITION DETAILS: Gα15 HEK293 cells stably expressing rat mGlu2; glutamate EC80 addition; read-out: rat mGlu2 IC50
Interpret pIC50 as the negative base-10 log of the concentration measured in mol/L.

The following compounds have reported results that may help.
SMILES TEXT	TARGET OR SYSTEM	pIC50
NC(=O)c1cn(-c2ccc(F)cc2)c2ccc(CCc3ccncc3)cc2c1=O	rat mGlu2 (Rattus norvegicus)	6.31
Cn1cc(-c2ccc3c(c2)c(=O)c(C(N)=O)cn3-c2ccc(F)cc2)cn1	rat mGlu2 (Rattus norvegicus)	6.26

Query block: Item under review: NC(=O)c1cn(-c2ccc(F)cc2)c2ccc(CCc3ccccn3)cc2c1=O . Reported pIC50?
Result block: 5.59

Query block: Item under review: NC(=O)c1cn(-c2ccc(F)cc2)c2ccc(CN3CCN(CC(F)(F)F)CC3)cc2c1=O . Reported pIC50?
Result block: 6.12

Query block: Item under review: CN(Cc1cccnc1)c1ccc2c(c1)c(=O)c(C(N)=O)cn2-c1ccc(F)cc1 . Reported pIC50?
Result block: 6.69

Query block: Item under review: Cc1cc(-n2cc(C(N)=O)c(=O)c3cc(CCc4cnc(C)nc4)ccc32)sn1 . Reported pIC50?
Result block: 6.38

Query block: Item under review: CN(c1cccnc1)c1ccc2c(c1)c(=O)c(C(N)=O)cn2-c1ccc(F)cc1 . Reported pIC50?
Result block: 6.81

###

# TARGET OR SYSTEM: rat mGlu2 (Rattus norvegicus, UniProt P31421)
# Construct: expressed in transfected cells
# Sequence (P31421 19-872): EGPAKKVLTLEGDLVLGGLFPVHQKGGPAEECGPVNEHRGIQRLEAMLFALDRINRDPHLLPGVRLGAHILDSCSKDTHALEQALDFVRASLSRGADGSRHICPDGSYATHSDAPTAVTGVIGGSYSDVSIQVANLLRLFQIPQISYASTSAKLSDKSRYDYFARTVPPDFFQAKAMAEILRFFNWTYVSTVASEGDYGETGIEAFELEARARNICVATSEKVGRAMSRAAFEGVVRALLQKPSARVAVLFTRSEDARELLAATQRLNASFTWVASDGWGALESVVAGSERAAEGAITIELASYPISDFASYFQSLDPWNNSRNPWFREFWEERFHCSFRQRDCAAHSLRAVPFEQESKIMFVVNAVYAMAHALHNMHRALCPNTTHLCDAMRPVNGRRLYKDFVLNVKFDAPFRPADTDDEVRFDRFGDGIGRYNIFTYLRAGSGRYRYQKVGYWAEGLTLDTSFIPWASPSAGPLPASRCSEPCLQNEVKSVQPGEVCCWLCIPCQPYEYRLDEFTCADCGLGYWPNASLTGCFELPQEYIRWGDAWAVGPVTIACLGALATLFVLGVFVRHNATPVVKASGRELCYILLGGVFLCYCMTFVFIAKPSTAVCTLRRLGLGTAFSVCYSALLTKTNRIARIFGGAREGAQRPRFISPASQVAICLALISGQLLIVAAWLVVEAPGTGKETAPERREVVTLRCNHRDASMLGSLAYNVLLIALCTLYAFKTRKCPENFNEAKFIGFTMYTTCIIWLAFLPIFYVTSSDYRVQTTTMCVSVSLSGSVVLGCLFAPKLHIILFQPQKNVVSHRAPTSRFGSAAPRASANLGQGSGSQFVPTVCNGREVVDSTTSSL
# TEST METHOD NOTES: mGlu2 Ca2+ flux assay
# Assay type: cell-based
# CONDITION DETAILS: amplitude of response in the presence of 30 μM test compound as percentage of maximal response to glutamate; read-out: rat mGlu2 Glu max (%)
OBSERVABLE: remaining activity at 30 µM (%)
# output: bare number, implied unit %

The following compounds have reported results that may help.
COMPOUND	OBSERVABLE	RESULT UNITS	OBSERVED VALUE
NC(=O)c1cn(-c2ccc(F)cc2)c2c(F)cc(CN3CCC(F)(F)C3)cc2c1=O	remaining activity at 30 µM	%	31.1
CS(=O)(=O)N1CCN(Cc2ccc3c(c2)c(=O)c(C(N)=O)cn3-c2ccc(F)cc2)CC1	remaining activity at 30 µM	%	1.47
NC(=O)c1cn(-c2ccc(F)cc2)c2ccc(CN3CCSCC3)cc2c1=O	remaining activity at 30 µM	%	1.52
C[C@@H]1CN(Cc2cc(F)c3c(c2)c(=O)c(C(N)=O)cn3-c2ccc(F)cc2)C[C@H](C)O1	remaining activity at 30 µM	%	2.23
Cc1cccc(CCc2ccc3c(c2)c(=O)c(C(N)=O)cn3-c2ccc(F)cc2)c1	remaining activity at 30 µM	%	42.1
NC(=O)c1cn(-c2ccc(F)cc2)c2ccc(N3CCCC3c3cccnc3)cc2c1=O (centres unmarked)	remaining activity at 30 µM	%	1.81
NC(=O)c1cn(-c2ccc(F)cc2)c2ccc(CN3CCCSCC3)cc2c1=O	remaining activity at 30 µM	%	2.06
CN(Cc1ccc2c(c1)c(=O)c(C(N)=O)cn2-c1ccc(F)cc1)C1CCCC1	remaining activity at 30 µM	%	1.39

Query block: Item under review: Cn1cc(-c2ccc3c(c2)c(=O)c(C(N)=O)cn3-c2ccc(F)cc2)cn1 . Reported remaining activity at 30 µM?
Result block: 0.41

Query block: Item under review: CN(Cc1cccnc1)c1ccc2c(c1)c(=O)c(C(N)=O)cn2-c1ccc(F)cc1 . Reported remaining activity at 30 µM?
Result block: 2.39

Query block: Item under review: CN(Cc1ccc2c(c1)c(=O)c(C(N)=O)cn2-c1ccc(F)cc1)C1CC(F)(F)C1 . Reported remaining activity at 30 µM?
Result block: 1.03

Query block: Item under review: NC(=O)c1cn(-c2ccc(F)cc2)c2ccc(CCc3cncc(F)c3)cc2c1=O . Reported remaining activity at 30 µM?
Result block: 1.4

Query block: Item under review: CC(Oc1ccc2c(c1)c(=O)c(C(N)=O)cn2-c1ccc(F)cc1)c1cccnc1 (centres unmarked) . Reported remaining activity at 30 µM?
Result block: 1.31

###

Parameter remaining activity at 30 µM: see the listing below.
# TARGET OR SYSTEM: rat mGlu2 (Rattus norvegicus, UniProt P31421)
# Construct: expressed in transfected cells
# TEST METHOD NOTES: mGlu2 Ca2+ flux assay
# Format: cell-based
# CONDITION DETAILS: amplitude of response in the presence of 30 μM test compound as percentage of maximal response to glutamate; read-out: rat mGlu2 Glu max (%)
# output: bare number, implied unit %

The following compounds have reported results that may help.
COMPOUND	OBSERVABLE	OBSERVED VALUE
Cc1cc(-n2cc(C(N)=O)c(=O)c3cc(CCc4cnc(C)nc4)ccc32)sn1	remaining activity at 30 µM	1.2
C[C@@H]1CN(Cc2ccc3c(c2)c(=O)c(C(N)=O)cn3-c2ccc(F)cc2)CCO1	remaining activity at 30 µM	1.08
NC(=O)c1cn(-c2ccc(F)cc2)c2ccc(CN3CCOCC3)cc2c1=O	remaining activity at 30 µM	-0.78
NC(=O)c1cn(-c2ccc(F)cc2)c2ccc(NCC3CCOCC3)cc2c1=O	remaining activity at 30 µM	1.04
NC(=O)c1cn(-c2ccc(F)cc2)c2ccc(CCc3ccncc3)cc2c1=O	remaining activity at 30 µM	1.88

Query block: Item under review: CC1CCN(C)CCN1Cc1ccc2c(c1)c(=O)c(C(N)=O)cn2-c1ccc(F)cc1 (stereo not shown) . Reported remaining activity at 30 µM?
Result block: 2.47

Query block: Item under review: Cc1ncc(COc2ccc3c(c2)c(=O)c(C(N)=O)cn3-c2ccc(F)cc2)cn1 . Reported remaining activity at 30 µM?
Result block: 1.92

Query block: Item under review: CC(Oc1ccc2c(c1)c(=O)c(C(N)=O)cn2-c1ccc(F)cc1)c1ccncc1 (stereo not shown) . Reported remaining activity at 30 µM?
Result block: 1.07

Query block: Item under review: NC(=O)c1cn(-c2ccc(F)cc2)c2ccc(N3CCCCC3c3cccnc3)cc2c1=O (stereo not shown) . Reported remaining activity at 30 µM?
Result block: 1.68

Query block: Item under review: Cc1cc(COc2ccc3c(c2)c(=O)c(C(N)=O)cn3-c2ccc(F)cc2)ccn1 . Reported remaining activity at 30 µM?
Result block: 1.09

###

Parameter remaining activity at 30 µM: see the listing below.
# TARGET OR SYSTEM: rat mGlu2 (Rattus norvegicus)
# Construct: expressed in transfected cells
# TEST METHOD NOTES: mGlu2 Ca2+ flux assay
# Format: cell-based
# CONDITION DETAILS: amplitude of response in the presence of 30 μM test compound as percentage of maximal response to glutamate; read-out: rat mGlu2 Glu max (%)
# Experimental: Gα15 HEK293 cells stably expressing rat mGlu2 were plated in black-walled, clear-bottomed, poly-D-lysine coated 384-well plates in 20 μL of assay medium (DMEM containing 10% dialyzed FBS, 20 mM HEPES, and 1 mM sodium pyruvate) at a density of 12K cells/well. […] Ca^2+ flux was measured using the Functional Drug Screening System (FDSS7000, Hamamatsu, Japan). […] Calcium fluorescence measures were recorded as fold over basal fluorescence; raw data was then normalized to the maximal response to glutamate. […]
# output: bare number, implied unit %

The following compounds have reported results that may help.
COMPOUND	RESULT UNITS	remaining activity at 30 µM
NC(=O)c1cn(-c2ccc(F)cc2)c2ccc(N3CCC(N4CCOCC4)C3)cc2c1=O (stereo not drawn)	%	1.08
Cc1ncc(CN(C)c2ccc3c(c2)c(=O)c(C(N)=O)cn3-c2ccc(F)cc2)cn1	%	1.86
CN(Cc1ccc2c(c1)c(=O)c(C(N)=O)cn2-c1ccc(F)cc1)C1CC1	%	1.33
NC(=O)c1cn(-c2ccc(F)cc2)c2ccc(CN3CCC(F)(F)CC3)cc2c1=O	%	1.59
NC(=O)c1cn(-c2ccc(F)cc2)c2ccc(CN3CCCCC3)cc2c1=O	%	53.8

Query block: What reported remaining activity at 30 µM corresponds to CC1CN(Cc2ccc3c(c2)c(=O)c(C(N)=O)cn3-c2ccc(F)cc2)CCO1 (stereo not drawn) on rat mGlu2 (Rattus norvegicus)?
Result block: 1.31

Query block: What reported remaining activity at 30 µM corresponds to NC(=O)c1cn(-c2ccc(F)cc2)c2ccc(COc3ccc(F)nc3)cc2c1=O on rat mGlu2 (Rattus norvegicus)?
Result block: 1.47

Query block: What reported remaining activity at 30 µM corresponds to NC(=O)c1cn(-c2ccc(F)cc2)c2ccc(Oc3ccc(F)nc3)cc2c1=O on rat mGlu2 (Rattus norvegicus)?
Result block: 1.18

Query block: What reported remaining activity at 30 µM corresponds to Cc1ncc(CCc2cc3c(=O)c(C(N)=O)cn(-c4ccc(F)cc4)c3cc2F)cn1 on rat mGlu2 (Rattus norvegicus)?
Result block: 1.02
